For each record, write down the corresponding Percent of Cell Survival (T/C %).
test system: human prostate cancer cell line LNCaP; assay: MTT and SRB cell growth assay, LNCaP; format: cell-based; conditions: 1.2500 μM, LNCaP
Give bare numbers, in %.

The examples below pair each entry with its known result.
S=C=NCc1ccccc1 [BITC, benzyl isothiocyanate]
27.95
S=C=NCCc1ccccc1 [PEITC, phenethyl isothiocyanate]
78.12
O=S(=O)(O)c1ccc(N=C=S)cc1 [SPITC, 4-sulfophenylisothiocyanate]
101.56

Attention now shifts to the item below.
Please provide the recorded Percent of Cell Survival (T/C %) for C=CCN=C=S [AITC, allyl isothiocyanate] , tested on human prostate cancer cell line LNCaP. 99.49

====

test system: human prostate cancer cell line LNCaP; experiment: MTT and SRB cell growth assay, LNCaP; assay type: cell-based; conditions: 0.3125 μM, LNCaP
Answer each item with its documented Percent of Cell Survival (T/C %).
Give bare numbers, in %.

S=C=NCc1ccccc1 [BITC, benzyl isothiocyanate]
95.82
C=CCN=C=S [AITC, allyl isothiocyanate]
98.55
O=S(=O)(O)c1ccc(N=C=S)cc1 [SPITC, 4-sulfophenylisothiocyanate]
99.66

Here's the next entry for you.
Report Percent of Cell Survival (T/C %) for S=C=NCCc1ccccc1 [PEITC, phenethyl isothiocyanate] please. 82.25

====

I'd appreciate it if you could supply Percent of Cell Survival (T/C %) values for the items below.
system: human prostate cancer cell line LNCaP; assay: MTT and SRB cell growth assay, LNCaP; type: cell-based; conditions: 10.0000 μM, LNCaP
One number for each entry, in %.

Below: 3 compounds and their reported Percent of Cell Survival (T/C %).
C=CCN=C=S [AITC, allyl isothiocyanate]
41.01
S=C=NCc1ccccc1 [BITC, benzyl isothiocyanate]
0.88
O=S(=O)(O)c1ccc(N=C=S)cc1 [SPITC, 4-sulfophenylisothiocyanate]
101.33

Please look at the following compound next.
Query: Percent of Cell Survival (T/C %); subject: S=C=NCCc1ccccc1 [PEITC, phenethyl isothiocyanate] 1.52

====

system: human prostate cancer cell line LNCaP; assay: MTT and SRB cell growth assay, LNCaP; assay type: cell-based; conditions: 0.0780 μM, LNCaP
Answer each item with its documented Percent of Cell Survival (T/C %).
Answers are plain numbers, in %.

Solved entries:
C=CCN=C=S [AITC, allyl isothiocyanate]
98.92
S=C=NCc1ccccc1 [BITC, benzyl isothiocyanate]
95.64
S=C=NCCc1ccccc1 [PEITC, phenethyl isothiocyanate]
102.10

Proceeding to the next compound to report its Percent of Cell Survival (T/C %).
May I ask what Percent of Cell Survival (T/C %) has been recorded for O=S(=O)(O)c1ccc(N=C=S)cc1 [SPITC, 4-sulfophenylisothiocyanate] ? 101.43

====

system: human prostate cancer cell line LNCaP; assay: MTT and SRB cell growth assay, LNCaP; format: cell-based; conditions: 0.0390 μM, LNCaP
So I've got a bunch of compounds here, and I need their Percent of Cell Survival (T/C %) values.
Give bare numbers, in %.

Known Percent of Cell Survival (T/C %) results, listed for orientation:
S=C=NCc1ccccc1 [BITC, benzyl isothiocyanate]
94.09
O=S(=O)(O)c1ccc(N=C=S)cc1 [SPITC, 4-sulfophenylisothiocyanate]
99.54
S=C=NCCc1ccccc1 [PEITC, phenethyl isothiocyanate]
102.60

Let us move to another entry and its Percent of Cell Survival (T/C %).
# query: Percent of Cell Survival (T/C %) of entry C=CCN=C=S [AITC, allyl isothiocyanate] 98.84

====

Tested on: human prostate cancer cell line LNCaP
Test: MTT and SRB cell growth assay, LNCaP
Format: cell-based
Settings: 20.0000 μM, LNCaP
Protocol: MTT and SRB method as described in the reference (Kreis, Budman et al. 1997). Briefly, human prostate cancer cells grown exponentially were aliquoted into 96-well plates at a density of 5000 cells/200 μl per well. […] The absorbance was measured at wavelength 540 nm. […] After extensive washes with 1% acetic acid for 5 times, air-dried, the purple protein-SRB complex was dissolved in 200 μl 10 mM Tris-HCl buffer (pH 10.0), and the absorbance was measured at the wavelength of 540 and 630 nm. […]
For each of the molecules below, state its Percent of Cell Survival (T/C %).
Numbers only, in %.

S=C=NCCc1ccccc1 [PEITC, phenethyl isothiocyanate]
0.56

Would you be so kind as to report Percent of Cell Survival (T/C %) for each listed record?
1. O=S(=O)(O)c1ccc(N=C=S)cc1 [SPITC, 4-sulfophenylisothiocyanate]
2. C=CCN=C=S [AITC, allyl isothiocyanate]
3. S=C=NCc1ccccc1 [BITC, benzyl isothiocyanate]

1. 99.88
2. 38.69
3. 0.94

====

tested on: Sp1; assay: Western blot to detect Sp1 in LNCaP cells; format: cell-based, human; conditions: 24 hrs
PROPERTY_NAME: expression of Sp1 (Western blot)

S=C=NCc1ccccc1 [BITC, benzyl isothiocyanate]
significantly inhibited
S=C=NCCc1ccccc1 [PEITC, phenethyl isothiocyanate]
significantly inhibited

====

tested on: human prostate cancer cell line LNCaP; assay: MTT and SRB cell growth assay, LNCaP; format: cell-based; conditions: 5.0000 μM, LNCaP
PROPERTY_NAME: Percent of Cell Survival (T/C %)
Numbers only, in %.

Please review the following examples before continuing.
C=CCN=C=S [AITC, allyl isothiocyanate]
47.60
O=S(=O)(O)c1ccc(N=C=S)cc1 [SPITC, 4-sulfophenylisothiocyanate]
100.60
S=C=NCCc1ccccc1 [PEITC, phenethyl isothiocyanate]
10.06

Now let's try a different one.
Entry S=C=NCc1ccccc1 [BITC, benzyl isothiocyanate] : reported Percent of Cell Survival (T/C %) = ? 5.07

====

Test system: human prostate cancer cell line LNCaP
Test: MTT and SRB cell growth assay, LNCaP
Assay type: cell-based
Details: 2.5000 μM, LNCaP
Method: MTT and SRB method as described in the reference (Kreis, Budman et al. 1997). Briefly, human prostate cancer cells grown exponentially were aliquoted into 96-well plates at a density of 5000 cells/200 μl per well. […] The absorbance was measured at wavelength 540 nm. […] After extensive washes with 1% acetic acid for 5 times, air-dried, the purple protein-SRB complex was dissolved in 200 μl 10 mM Tris-HCl buffer (pH 10.0), and the absorbance was measured at the wavelength of 540 and 630 nm. […]
PROPERTY_NAME: Percent of Cell Survival (T/C %)

Past entries and their recorded results:
O=S(=O)(O)c1ccc(N=C=S)cc1 [SPITC, 4-sulfophenylisothiocyanate]
104.37%
S=C=NCc1ccccc1 [BITC, benzyl isothiocyanate]
14.83%
S=C=NCCc1ccccc1 [PEITC, phenethyl isothiocyanate]
30.24%

--- query ---
Return reported Percent of Cell Survival (T/C %); argument: C=CCN=C=S [AITC, allyl isothiocyanate] 83.95%
